# Assay method text: A549 lung cancer cell viability effects, profiling panel, resazurin fluorescence, 24 h, PK04 Diversity Set (AID 1171); also: test concentration not given here
# Cond: higher = more signal, called active from +8 up or from −8 down
The source made the active and inactive calls.
Endpoint: z-score

These recorded examples may help you get a feel for the data.
C=CCOC(=O)[C@H]1[C@@H]2C(=O)O[C@@H](c3ccccc3)[C@@H](c3ccccc3)N2[C@@H](c2ccc(OCCOC(=O)[C@@H]3C[C@@H]4C(=O)N5CCC[C@H]5C(=O)N4[C@@H]3c3ccc(O)cc3)cc2)[C@]12C(=O)Nc1ccccc12: 0.362 (inactive)
COC(=O)c1ccc(C(O)C2C=CC3C(=O)N(c4ccccc4)C(=O)C3N2Nc2ccc(C#N)cc2)o1 (stereo not drawn): 0.276 (inactive)

Query compound follows.
Determine its reported z-score: CS(=O)(=O)CCOC(=O)C1=CC(CCCO)=CC(c2cccs2)N(Cc2cc3c(cc2Br)OCO3)C=C1C(=O)OCCS(C)(=O)=O (stereo not drawn)
0.885 (inactive)

----------
# Target: Epidermal growth factor receptor (Homo sapiens)
# Assay method text: EGFR binders on small-molecule microarrays, primary screen, biochemical, small-molecule microarray, 635 nm fluorescence (AID 1104);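 also: score merges 667 nm emission intensity with spot signal to noise over triplicate slides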
# Cond: EGFR binding, higher = more signal
Endpoint: composite z-score
Numbers only.

O=C1OCCC=C[C@H]2OC34C=CCN(Cc5ccccc5)C(=O)[C@H]3N(CCCO)C(=O)[C@@H]4C12 (some centres undefined): -0.873
COCCOC(=O)N1C(=O)[C@@]2(c3cc(C#CC4=CCCCC4)ccc31)[C@H](C(=O)NC[C@H](O)c1ccccc1)[C@H]1C(=O)O[C@H](c3ccccc3)[C@H](c3ccccc3)N1[C@@H]2c1ccc(O)cc1: 0.663
Cc1c(NC(=O)CC#N)c(=O)n(-c2ccccc2)n1C: 0.322

Here is the next item to consider.
Given the molecule COCCOC(=O)N1C(=O)[C@@]2(c3cc(C#CCC(C(=O)OC)C(=O)OC)ccc31)[C@H](C(=O)N1CCCCCCC1)[C@H]1C(=O)O[C@H](c3ccccc3)[C@H](c3ccccc3)N1[C@@H]2c1ccc(OCCO)cc1 , write its reported composite z-score.
1.76

----------
# Assay method text: COS7 lysate on small-molecule microarray, probe aHis, 635 nm (AID 1123);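 also: z-score combines 667nm fluorescence intensity with signal-to-noise per printed compound spot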
# Cond: COS7 cell lysate, fluorescence, higher = more signal
Endpoint: composite z-score
One number for each entry.

Take a look at these entries with their results.
CC(=O)NCCCC[C@@H]1NC(=O)[C@@H]2C[C@H](C(=O)NCCCCCCNC(=O)CS)[C@H](c3ccc(O)cc3)N2C1=O: 0.846
CC(C)NC(=O)[C@@H]1c2ccccc2C(=O)N(Cc2ccccc2)[C@H]1c1ccc(CO)cc1: 2.01
CCOC(=O)C[C@H]1[C@H](OC(=O)Cc2ccc3c(c2)OCO3)[C@@H](NC(=O)c2ccc(-c3ccccc3)cc2)c2cc(OCCCO)ccc2N1C(=O)c1ccccc1: 0.341
NCCCCCCNC(=O)[C@H]1C[C@H]2C(=O)NCC(=O)N2[C@H]1c1cccc(OCCO)c1: 1.07
COc1ccc(C(O)C2C=CC3C(=O)NC(=O)C3N2Nc2ccccn2)cc1OCc1ccccc1 (centres undefined): 1.76
Cc1ccc([C@H]2[C@H](C(=O)O)[C@H](Sc3ccccc3)[C@@H](C(C)C)N2S(=O)(=O)c2ccc(C)cc2)cc1: 2.25

Please supply composite z-score for each of the following items, keeping them in order.
1. Cc1ccccc1C(O)C1C=CC2C(=O)N(C)C(=O)C2N1Nc1ccccc1 (centres undefined)
2. CCCC[C@@H]1C[C@H]1[C@@H](NC(=O)c1ccc(-c2ccccc2)cc1)c1ccc(-c2ccccc2)cc1
3. NC(=O)NCC#Cc1ccc2c(c1)[C@]1(C(=O)N2)[C@H](C(=O)N2CCCCCCC2)[C@H]2C(=O)O[C@H](c3ccccc3)[C@H](c3ccccc3)N2[C@@H]1c1ccc(OCCO)cc1

2.05
0.468
1.6

----------
Could you please report measured composite z-score for the items listed next?
# Test system: Human papillomavirus type 1a E7 protein (residues 1-88)
# Assay method text: HPV1a E7 small-molecule binders, primary screen, biochemical, small-molecule microarray, residues 1-88, 635 nm (AID 1129)
# Cond: small-molecule microarray binding, fluorescence 635 nm; higher = more signal
One number for each entry.

Hi! Can you tell me composite z-score for each of these compounds?
1. C=CC[C@@]1(C(=O)NCC(O)CO)N=C(c2ccc(OCCCO)cc2)O[C@@H]1c1ccccc1N=[N+]=[N-] (some centres undefined)
2. COC(=O)[C@@]1(Cc2ccc(OC)cc2)[C@H]2c3cc(C(=O)N4CCCC4)n(Cc4ccccn4)c3C[C@H]2CN1C(=O)c1ccccc1

1. 1.12
2. 1.26

List the reported composite z-score of each compound below.
1. CC(C)c1ccc(NN2C(C(O)c3c(F)cccc3Cl)C=CC3C(=O)N(c4ccccc4)C(=O)C32)cc1 (centres undefined)
2. COCCCNC(=O)[C@@]1(C)c2ccccc2C(=O)N(Cc2cc(C(F)(F)F)cc(C(F)(F)F)c2)[C@H]1c1ccc(CO)cc1
3. CCCCCCCCCCC(O)C1C=CC2C(=O)N(Cc3ccccc3)C(=O)C2N1n1cnnc1 (centres undefined)
4. COc1ccc([Si](C)(C)[C@H]2[C@H](CCn3cc(CCO)nn3)O[C@@]3(C(=O)N(Cc4ccc(N5CCOC5=O)cc4)c4ccccc43)[C@@H]2C)cc1
5. CCN(CC)c1ccc(N2CC=CC34O[C@@H]5C=CCCOC(=O)C5[C@H]3C(=O)N(CCCCCO)[C@@H]4C2=O)cc1 (some centres undefined)
6. COc1c(C)cc(-c2cc3c(c(-c4ccc(Oc5ccccc5)cc4)n2)[Si](C(C)C)(C(C)C)OC3)cc1C

1. 1.13
2. -0.203
3. 0.812
4. 1.16
5. -0.513
6. -0.582

Dear colleague, could you please provide composite z-score for the compounds listed below?
1. C=C[C@@H](COC(C)=O)N(Cc1ccccc1[N+](=O)[O-])S(=O)(=O)c1ccc(Br)cc1
2. NC(=O)NCC#Cc1ccc2c(c1)[C@]1(C(=O)N2)[C@H](C(=O)NC[C@H](O)c2ccccc2)[C@H]2C(=O)O[C@H](c3ccccc3)[C@H](c3ccccc3)N2[C@@H]1c1ccc(O)cc1
3. COc1ccc(C#Cc2ccc3c(c2)[C@]2(C(=O)N3)[C@H](C(=O)NC[C@H](O)c3ccccc3)[C@H]3C(=O)O[C@H](c4ccccc4)[C@H](c4ccccc4)N3[C@@H]2c2ccccc2OCCO)cc1
4. CC(C)OC(=O)CC(=O)CC(O)c1ccc(C#N)cc1 (centres undefined)

1.11
1.17
1.19
1.14

----------
# Assay method text: P. aeruginosa biofilm formation inhibitors, primary screen, PAO1 strain, BacTiter-Glo luminescence, LB-PBS (AID 1144)
# Cond: 12 h, higher = more signal
Endpoint: z-score
Answers are plain numbers.

Would you please look over these solved cases?
CC(C)C[C@@H]1NC(=O)[C@H]2C[C@@H](C(=O)NCCCCCCNC(=O)CS)[C@@H](c3cccc(OCCO)c3)N2C1=O: -0.436
CCCCC=C[C@@H](NC(=O)c1ccc(C(=O)OC)cc1)c1ccccc1: 0.806
CC(C)c1ccc(NN2C(C(O)c3cccc(O)c3)C=CC3C(=O)N(c4ccccc4)C(=O)C32)cc1 (centres undefined): -0.406
O=C1OCC=C[C@H]2OC34C=CCN(c5ccc(Cl)cc5)C(=O)[C@H]3N(CCCCCCO)C(=O)[C@@H]4[C@@H]12 (some centres undefined): 1.36
CC(C)C[C@@H]1NC(=O)[C@@H]2C[C@H](C(=O)NCCCCCC[N+](C)(C)C)[C@H](c3ccc(O)cc3)N2C1=O: -0.555

For every listed record, write down its z-score.
1. COCCOC(=O)N1C(=O)[C@@]2(c3cc(C#CCNC(N)=O)ccc31)[C@H](C(=O)N1CCN(c3ncccn3)CC1)[C@H]1C(=O)O[C@H](c3ccccc3)[C@H](c3ccccc3)N1[C@@H]2c1ccccc1OCCO
2. O=C1O[C@@H](c2ccccc2)[C@@H](c2ccccc2)N2[C@@H](c3ccccc3OCCO)[C@]3(C(=O)Nc4ccc(C#CC5(O)CCCCCC5)cc43)[C@@H](C(=O)Nc3nc4ccccc4s3)[C@H]12
3. C=CCNC(=O)[C@@H]1[C@H]2C(=O)O[C@H](c3ccccc3)[C@H](c3ccccc3)N2[C@H](c2ccc(O)cc2)[C@@]12C(=O)N(C(=O)OCCOC)c1ccccc12
4. [N-]=[N+]=NCc1ccccc1C[C@]1(C(=O)NCC(O)CO)N=C(c2ccc(OCCCO)cc2)O[C@H]1c1ccccc1N=[N+]=[N-] (some centres undefined)
5. COC(=O)[C@@]1(Cc2ccc(OC)cc2)[C@H]2c3cc(C(=O)N4CCCC4)n(CCc4c[nH]c5cc(F)ccc45)c3C[C@H]2CN1C(=O)c1ccccc1
6. CC(c1ccccc1)C(O)C1C=CC2C(=O)NC(=O)C2N1Nc1ccccn1 (centres undefined)
7. O=C1C=CC(=O)[C@@H]2CC(COc3ccccc3)=C3[C@@H](CCc4ccccc4)OB(O)C[C@@H]3[C@H]12
8. CC(C)N1C(=O)c2ccccc2[C@@H](C(=O)NCCCN(C)C)[C@@H]1c1ccc(CO)cc1

1. -0.94
2. 0.207
3. -0.848
4. -0.000841
5. -0.0146
6. -1.1
7. 0.452
8. -0.282

Fill in reported z-score for this entry: CCOC(=O)C1=C[C@@H](CC)N(S(=O)(=O)c2ccc(C)cc2)[C@H]1c1ccccc1
-0.0903

Origin of values: PubChem BioAssay
